- Assay protocol: Antitumor activity against mouse HepS cells allografted in Kunming mouse assessed as tumor growth inhibition at 15 ug/kg, ip qd administered 24 hrs post challenge for 10 days
- Assay type: functional
- Measurement context: read-out: GI
Readout type: inhibition in vivo at 0.015 mg/kg (%)
Only the number, expressed in %, is required.

Solved entries:
CCCCCCCCCC[C@H](O)[C@H]1CC[C@H]([C@H]2CC[C@H]([C@H](O)CCCCCCCCCCCCC3=C[C@H](C)OC3=O)O2)O1 = 32.5
CCCCCCCCCC[C@@H](O)[C@@H]1CC[C@@H]([C@H](O)CC[C@@H](O)[C@@H]2CC[C@@H](CCCCCCCCCC3=C[C@H](C)OC3=O)O2)O1 = 34.2
CCCCCCCCCCCC[C@@H](O)[C@H]1CC[C@H]([C@H](O)CCCCCC(O)CCCCCCC2=C[C@H](C)OC2=O)O1 (stereo not given in full) = 61.5
CCCCCC[C@H](O)CCC[C@H](O)[C@H]1CC[C@H]([C@H](O)CC[C@H](O)[C@@H]2CC[C@@H](CCCCCCCCCC3=C[C@H](C)OC3=O)O2)O1 = 15

Let us move to another entry and its inhibition in vivo at 0.015 mg/kg.
query: // lookup inhibition in vivo at 0.015 mg/kg for CCCCCCCCCC[C@@H](O)[C@@H]1CC[C@@H]([C@@H]2CC[C@@H]([C@H](O)CCCCCCCCCC(O)CC3=CC(C)OC3=O)O2)O1 (stereo not given in full)
result: 63.4

All figures here come from ChEMBL document CHEMBL2016439.
